Reported values of Rev/plate for individual entries
# Test system: Salmonella TA100
# Test name: Salmonella plate-incorporation mutagenicity assay, strain TA100
# Assay type: cell-based
# Condition notes: TA100 +S9, Test 3, 5 µg/plate; zero-dose 127/118/125
Endpoint: Rev/plate

| Compound | Target desc | Reported |
| --- | --- | --- |
| c1ccc2c(c1)ccc1ccc3ccccc3c12 [B[c]P, Benzo[c]phenanthrene] | Salmonella TA100 | 510/499 |
| O[C@@H]1c2ccccc2-c2c(ccc3sccc23)[C@H]1O (racemic) [P[3,4-b]T 6,7-diol] | Salmonella TA100 | 573/564 |
| O[C@@H]1c2ccccc2-c2c(ccc3ccsc23)[C@H]1O (racemic) [P[4,3-b]T 6,7-diol] | Salmonella TA100 | 125/135 |
| O[C@@H]1C=Cc2c(ccc3ccc4ccccc4c23)[C@H]1O (racemic) [B[c]P 3,4-diol] | Salmonella TA100 | 1216/1218 |
| O=S1(=O)C=Cc2c1ccc1ccc3ccccc3c21 [P[3,4-b]T sulfone, Phenanthro[3,4-b]thiophene sulfone] | Salmonella TA100 | 3090/3170 |
| O[C@@H]1C=Cc2c(ccc3ccc4ccsc4c23)[C@H]1O (racemic) [P[4,3-b]T 8,9-diol] | Salmonella TA100 | 985/1059 |
| c1ccc2c(c1)ccc1ccc3ccsc3c12 [P[4,3-b]T, Phenanthro[4,3-b]thiophene] | Salmonella TA100 | 218/248 |
| O[C@@H]1C=Cc2c(ccc3ccc4sccc4c23)[C@H]1O (racemic) [P[3,4-b]T 8,9-diol] | Salmonella TA100 | 545/614 |

###

# Tested on: Salmonella TA104
# Test name: Salmonella plate-incorporation mutagenicity assay, strain TA104, with S9 mix
# Format: cell-based
# Condition notes: TA104 +S9, Test 3, 10 µg/plate; zero-dose 402/395/336
Reported values of Rev/plate for individual entries
Endpoint: Rev/plate

| Molecule | Endpoint | Reported |
| --- | --- | --- |
| O[C@@H]1c2ccccc2-c2c(ccc3sccc23)[C@H]1O (racemic) [P[3,4-b]T 6,7-diol] | Rev/plate | 532/550 |
| O[C@@H]1c2ccccc2-c2c(ccc3ccsc23)[C@H]1O (racemic) [P[4,3-b]T 6,7-diol] | Rev/plate | 442/462 |
| c1ccc2c(c1)ccc1ccc3ccsc3c12 [P[4,3-b]T, Phenanthro[4,3-b]thiophene] | Rev/plate | 489/509 |
| O=S1(=O)C=Cc2c1ccc1ccc3ccccc3c21 [P[3,4-b]T sulfone, Phenanthro[3,4-b]thiophene sulfone] | Rev/plate | 1652/1652 |

###

# Test system: Salmonella TA98
# Test name: Salmonella plate-incorporation mutagenicity assay, strain TA98, with S9 mix
# Type: cell-based
# Condition notes: TA98 +S9, Test 3, 20 µg/plate; zero-dose 49/50/50
Reported values of Rev/plate for individual entries
Endpoint: Rev/plate

| Compound | Endpoint | Reported |
| --- | --- | --- |
| O[C@@H]1c2ccccc2-c2c(ccc3sccc23)[C@H]1O (racemic) [P[3,4-b]T 6,7-diol] | Rev/plate | 90/111 |
| O[C@@H]1C=Cc2c(ccc3ccc4ccccc4c23)[C@H]1O (racemic) [B[c]P 3,4-diol] | Rev/plate | 350/328 |
| O[C@@H]1c2ccccc2-c2c(ccc3ccccc23)[C@H]1O (racemic) [B[c]P 5,6-diol] | Rev/plate | 46/60 |
| O[C@@H]1C=Cc2c(ccc3ccc4sccc4c23)[C@H]1O (racemic) [P[3,4-b]T 8,9-diol] | Rev/plate | 193/190 |
| O[C@@H]1c2ccccc2-c2c(ccc3ccsc23)[C@H]1O (racemic) [P[4,3-b]T 6,7-diol] | Rev/plate | 52/47 |
| O[C@@H]1C=Cc2c(ccc3ccc4ccsc4c23)[C@H]1O (racemic) [P[4,3-b]T 8,9-diol] | Rev/plate | 298/321 |

###

# Test system: Salmonella TA104
# Test name: Salmonella plate-incorporation mutagenicity assay, strain TA104, with S9 mix
# Assay type: cell-based
# Condition notes: TA104 +S9, Test 3, 1 µg/plate; zero-dose 402/395/336
Reported values of Rev/plate for individual entries
Endpoint: Rev/plate

| Compound | Target desc | Reported |
| --- | --- | --- |
| O[C@@H]1C=Cc2c(ccc3ccc4ccsc4c23)[C@H]1O (racemic) [P[4,3-b]T 8,9-diol] | Salmonella TA104 | 1210/1178 |
| O[C@@H]1C=Cc2c(ccc3ccc4ccccc4c23)[C@H]1O (racemic) [B[c]P 3,4-diol] | Salmonella TA104 | 923/920 |
| c1ccc2c(c1)ccc1ccc3sccc3c12 [P[3,4-b]T, Phenanthro[3,4,-b]thiophene] | Salmonella TA104 | 571/559 |

###

# Tested on: Salmonella TA104
# Test name: Salmonella plate-incorporation mutagenicity assay, strain TA104, with S9 mix
# Assay type: cell-based
# Condition notes: TA104 +S9, Test 2, 5 µg/plate; zero-dose 276/260/270

| Molecule | Rev/plate |
| --- | --- |
| O=S1(=O)C=Cc2c1ccc1ccc3ccccc3c21 [P[3,4-b]T sulfone, Phenanthro[3,4-b]thiophene sulfone] | 1603/1565 |
| c1ccc2c(c1)ccc1ccc3ccccc3c12 [B[c]P, Benzo[c]phenanthrene] | 753/894 |
| c1ccc2c(c1)ccc1ccc3ccsc3c12 [P[4,3-b]T, Phenanthro[4,3-b]thiophene] | 419/440 |
| O[C@@H]1c2ccccc2-c2c(ccc3sccc23)[C@H]1O (racemic) [P[3,4-b]T 6,7-diol] | 407/431 |
| O[C@@H]1C=Cc2c(ccc3ccc4sccc4c23)[C@H]1O (racemic) [P[3,4-b]T 8,9-diol] | 1723/1755 |
| c1ccc2c(c1)ccc1ccc3sccc3c12 [P[3,4-b]T, Phenanthro[3,4,-b]thiophene] | 582/601 |
| O[C@@H]1c2ccccc2-c2c(ccc3ccsc23)[C@H]1O (racemic) [P[4,3-b]T 6,7-diol] | 330/353 |

###

# Test system: Salmonella TA104
# Test name: Salmonella plate-incorporation mutagenicity assay, strain TA104, with S9 mix
# Format: cell-based
# Condition notes: TA104 +S9, Test 2, 0.5 µg/plate; zero-dose 276/260/270

| Compound | Target desc | Rev/plate |
| --- | --- | --- |
| Nc1ccc2cc3ccccc3cc2c1 [2-aminoanthracene, reference compound] | Salmonella TA104 | 764/666 |
| c1ccc2c(c1)ccc1ccc3ccccc3c12 [B[c]P, Benzo[c]phenanthrene] | Salmonella TA104 | 432/407 |
| O[C@@H]1C=Cc2c(ccc3ccc4sccc4c23)[C@H]1O (racemic) [P[3,4-b]T 8,9-diol] | Salmonella TA104 | 486/465 |
| c1ccc2c(c1)ccc1ccc3sccc3c12 [P[3,4-b]T, Phenanthro[3,4,-b]thiophene] | Salmonella TA104 | 335/385 |

###

# System: Salmonella TA98
# Test name: Salmonella plate-incorporation mutagenicity assay, strain TA98, with S9 mix
# Assay type: cell-based
# Condition notes: TA98 +S9, Test 1, 2 µg/plate; zero-dose 33/40/39
Friendly reminder: Rev/plate below 60 rev/plate is yes, at or above is no.

| Molecule | Target desc | Qualitative label |
| --- | --- | --- |
| O[C@@H]1C=Cc2c(ccc3ccc4ccsc4c23)[C@H]1O (racemic) [P[4,3-b]T 8,9-diol] | Salmonella TA98 | no |
| O=S1(=O)C=Cc2c1ccc1ccc3ccccc3c21 [P[3,4-b]T sulfone, Phenanthro[3,4-b]thiophene sulfone] | Salmonella TA98 | no |
| c1ccc2c(c1)ccc1ccc3ccccc3c12 [B[c]P, Benzo[c]phenanthrene] | Salmonella TA98 | yes |
| O[C@@H]1c2ccccc2-c2c(ccc3sccc23)[C@H]1O (racemic) [P[3,4-b]T 6,7-diol] | Salmonella TA98 | yes |
| O[C@@H]1c2ccccc2-c2c(ccc3ccccc23)[C@H]1O (racemic) [B[c]P 5,6-diol] | Salmonella TA98 | yes |
| c1ccc2c(c1)ccc1ccc3sccc3c12 [P[3,4-b]T, Phenanthro[3,4,-b]thiophene] | Salmonella TA98 | no |
| O[C@@H]1C=Cc2c(ccc3ccc4ccccc4c23)[C@H]1O (racemic) [B[c]P 3,4-diol] | Salmonella TA98 | yes |
| O[C@@H]1c2ccccc2-c2c(ccc3ccsc23)[C@H]1O (racemic) [P[4,3-b]T 6,7-diol] | Salmonella TA98 | yes |

###

# Test system: Salmonella TA98
# Test name: Salmonella plate-incorporation mutagenicity assay, strain TA98, with S9 mix
# Format: cell-based
# Condition notes: TA98 +S9, Test 3, 40 µg/plate; zero-dose 49/50/50

| Molecule | Rev/plate |
| --- | --- |
| O[C@@H]1C=Cc2c(ccc3ccc4ccccc4c23)[C@H]1O (racemic) [B[c]P 3,4-diol] | 458/504 |
| O[C@@H]1C=Cc2c(ccc3ccc4ccsc4c23)[C@H]1O (racemic) [P[4,3-b]T 8,9-diol] | 561/624 |
| O[C@@H]1c2ccccc2-c2c(ccc3ccsc23)[C@H]1O (racemic) [P[4,3-b]T 6,7-diol] | 48/50 |
| O[C@@H]1C=Cc2c(ccc3ccc4sccc4c23)[C@H]1O (racemic) [P[3,4-b]T 8,9-diol] | 315/359 |
| O[C@@H]1c2ccccc2-c2c(ccc3ccccc23)[C@H]1O (racemic) [B[c]P 5,6-diol] | 51/47 |
| O[C@@H]1c2ccccc2-c2c(ccc3sccc23)[C@H]1O (racemic) [P[3,4-b]T 6,7-diol] | 132/132 |
